# target: MPO (purified from human polynuclear leukocytes) (Homo sapiens)
# Construct: purified from human polynuclear leukocytes; purchased Calbiochem/EMD Biosciences; host or cells: human polynuclear leukocytes (natural source)
# assay.explanation: MPO Amplex Red Activity Assay
# Type: biochemical
# condition.parameters: Table 1, 2 μM H2O2, pH 7.4
Structures can show the parent of a compound that is named as a salt.
quantity: MPO kinact/Ki

// below: answered compounds
> print(dat)
                                    compound                                    target       quantity  reported.measurement
 1    C=CCn1c(-c2ccc(OC)cc2OC)cc(=O)[nH]c1=S  MPO (purified from human polynuclear leukocytes) (Homo sapiens)  MPO kinact/Ki         604 1/s per M
 2  COCCn1c(-c2ccc3cc[nH]c3c2)cc(=O)[nH]c1=S  MPO (purified from human polynuclear leukocytes) (Homo sapiens)  MPO kinact/Ki        3330 1/s per M
 3  COc1ccc(C)cc1-c1cc(=O)[nH]c(=S)n1CCN [Example 159, hydrochloride]  MPO (purified from human polynuclear leukocytes) (Homo sapiens)  MPO kinact/Ki       11400 1/s per M
 4  NC(=O)Cn1c(-c2csc3ccccc23)cc(=O)[nH]c1=S  MPO (purified from human polynuclear leukocytes) (Homo sapiens)  MPO kinact/Ki        1160 1/s per M
 5  COc1cc(OC)c(-c2cc(=O)[nH]c(=S)n2CCN)cc1C [Example 81, hydrochloride]  MPO (purified from human polynuclear leukocytes) (Homo sapiens)  MPO kinact/Ki       24300 1/s per M
 6  COc1cc(-c2cc(=O)[nH]c(=S)n2CCO)c(OC)cc1C  MPO (purified from human polynuclear leukocytes) (Homo sapiens)  MPO kinact/Ki        8180 1/s per M
 7    COc1ccc(Cl)cc1-c1cc(=O)[nH]c(=S)n1CCCO  MPO (purified from human polynuclear leukocytes) (Homo sapiens)  MPO kinact/Ki        6930 1/s per M
 8  COc1cc(OC)c(-c2cc(=O)[nH]c(=S)n2CCCN)cc1C [Example 105, hydrochloride]  MPO (purified from human polynuclear leukocytes) (Homo sapiens)  MPO kinact/Ki       27300 1/s per M
 9      COCCn1c(-c2cccc(Cl)c2)cc(=O)[nH]c1=S  MPO (purified from human polynuclear leukocytes) (Homo sapiens)  MPO kinact/Ki        2460 1/s per M
10         COc1ccccc1-c1cc(=O)[nH]c(=S)n1CCO  MPO (purified from human polynuclear leukocytes) (Homo sapiens)  MPO kinact/Ki       16800 1/s per M

# MPO kinact/Ki lookup, item NC(=O)Cn1c(-c2ccccc2-n2nccn2)cc(=O)[nH]c1=S
2920 1/s per M

# MPO kinact/Ki lookup, item COCCn1c(-c2ccccc2CO)cc(=O)[nH]c1=S
1070 1/s per M

# MPO kinact/Ki lookup, item CNC(=O)c1cccc(-c2cc(=O)[nH]c(=S)n2CCOC)c1
1160 1/s per M

# MPO kinact/Ki lookup, item COCCn1c(-c2ccccc2Cl)cc(=O)[nH]c1=S
2060 1/s per M

# MPO kinact/Ki lookup, item COc1ccc(-c2cc(=O)[nH]c(=S)n2CCC(N)=O)c(OC)c1
2210 1/s per M

# MPO kinact/Ki lookup, item COCCn1c(-c2cccc3ccsc23)cc(=O)[nH]c1=S
9870 1/s per M

# MPO kinact/Ki lookup, item COc1ccccc1-c1cc(=O)[nH]c(=S)n1CCOC(C)C
2910 1/s per M

# MPO kinact/Ki lookup, item COCCn1c(-c2ccc(F)cc2)cc(=O)[nH]c1=S
1890 1/s per M

# MPO kinact/Ki lookup, item COCCn1c(-c2cccc(S(C)(=O)=O)c2)cc(=O)[nH]c1=S
914 1/s per M

# MPO kinact/Ki lookup, item COCCn1c(-c2cccc3ccoc23)cc(=O)[nH]c1=S
14400 1/s per M

# MPO kinact/Ki lookup, item COc1ccc(-c2cc(=O)[nH]c(=S)n2CC(N)=O)c(OC)c1
10500 1/s per M

# MPO kinact/Ki lookup, item COCCn1c(-c2ccccc2-n2nccn2)cc(=O)[nH]c1=S
4140 1/s per M

# MPO kinact/Ki lookup, item COc1ccc(-c2cc(=O)[nH]c(=S)n2C[C@H](O)CO)c(OC)c1
3450 1/s per M

# MPO kinact/Ki lookup, item COc1ccc(-c2cc(=O)[nH]c(=S)n2CC(C)CO)c(OC)c1 (stereo not shown)
5350 1/s per M

# MPO kinact/Ki lookup, item COCCn1c(-c2ccc(OC)c(F)c2)cc(=O)[nH]c1=S
1420 1/s per M

# MPO kinact/Ki lookup, item NC(=O)Cn1c(-c2cccc3ccoc23)cc(=O)[nH]c1=S
7680 1/s per M

# MPO kinact/Ki lookup, item COc1ccc(-c2cc(=O)[nH]c(=S)n2CCCCCO)c(OC)c1
5490 1/s per M

# MPO kinact/Ki lookup, item COc1ccc(OC)c(-c2cc(=O)[nH]c(=S)n2CCCN)c1 [Example 87, hydrochloride]
15400 1/s per M

# MPO kinact/Ki lookup, item COCCn1c(-c2cc(C(C)C)ccc2OC)cc(=O)[nH]c1=S
13200 1/s per M

###

compounds and their reported MPO kinact/Ki
# target: MPO (purified from human polynuclear leukocytes) (Homo sapiens, UniProt P05164)
# Construct: purified from human polynuclear leukocytes; purchased Calbiochem/EMD Biosciences; host or cells: human polynuclear leukocytes (natural source)
# Sequence (P05164 279-745 limits assumed): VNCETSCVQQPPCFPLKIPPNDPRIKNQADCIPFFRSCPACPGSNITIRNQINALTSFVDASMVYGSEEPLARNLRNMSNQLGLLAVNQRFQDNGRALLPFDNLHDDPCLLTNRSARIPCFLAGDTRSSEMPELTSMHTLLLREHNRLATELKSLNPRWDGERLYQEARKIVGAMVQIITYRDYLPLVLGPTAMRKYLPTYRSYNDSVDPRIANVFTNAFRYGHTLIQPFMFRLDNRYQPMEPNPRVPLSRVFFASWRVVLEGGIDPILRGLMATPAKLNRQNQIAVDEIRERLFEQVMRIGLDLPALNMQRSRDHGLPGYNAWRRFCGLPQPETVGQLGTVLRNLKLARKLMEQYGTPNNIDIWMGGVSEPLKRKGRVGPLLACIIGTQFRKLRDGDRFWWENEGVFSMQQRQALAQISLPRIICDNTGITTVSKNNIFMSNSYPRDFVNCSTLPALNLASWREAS
# Sequence (P05164 165-273 limits assumed): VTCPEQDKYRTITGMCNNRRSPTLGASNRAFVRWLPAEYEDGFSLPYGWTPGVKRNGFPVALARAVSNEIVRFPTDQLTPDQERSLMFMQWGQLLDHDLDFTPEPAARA
# assay.explanation: MPO Amplex Red Activity Assay
# Type: biochemical
# condition.parameters: Table 1, 2 μM H2O2, pH 7.4
Where a name gives a salt, the structure may show the parent alone.

// below: answered compounds
> print(dat)
                                   compound       quantity  reported.measurement
1        COCCn1c(-c2cccnc2OC)cc(=O)[nH]c1=S  MPO kinact/Ki         991 1/s per M
2  NCCCn1c(-c2ccc3c(c2)CCO3)cc(=O)[nH]c1=S [Example 38, hydrochloride]  MPO kinact/Ki        5240 1/s per M
3  COc1ccc(-c2cc(=O)[nH]c(=S)n2CCCN)c(OC)c1 [Example 178, formate]  MPO kinact/Ki       11100 1/s per M
4      COc1cc(F)ccc1-c1cc(=O)[nH]c(=S)n1CCO  MPO kinact/Ki       15800 1/s per M

# MPO kinact/Ki lookup, item COc1ccc(-c2cc(=O)[nH]c(=S)n2CCCC[C@H](N)C(N)=O)c(OC)c1 [Example 260, hydrochloride]
19700 1/s per M

###

# target: MPO (purified from human polynuclear leukocytes) (Homo sapiens)
# Construct: purified from human polynuclear leukocytes; purchased Calbiochem/EMD Biosciences; host or cells: human polynuclear leukocytes (natural source)
# assay.explanation: MPO Amplex Red Activity Assay
# Assay type: biochemical
# condition.parameters: Table 1, 2 μM H2O2, pH 7.4
Where a name gives a salt, the structure may show the parent alone.
compounds and their reported MPO kinact/Ki

> print(dat)
                                   compound  reported.measurement
1  COc1ccc(-c2cc(=O)[nH]c(=S)n2C(C)C(N)=O)c(OC)c1 (stereo not drawn)        2180 1/s per M

Under MPO (purified from human polynuclear leukocytes) (Homo sapiens): MPO kinact/Ki value of COc1ccc(-c2cc(=O)[nH]c(=S)n2CC(C)O)c(OC)c1 (stereo not drawn) ?
2790 1/s per M

Under MPO (purified from human polynuclear leukocytes) (Homo sapiens): MPO kinact/Ki value of COc1ccc(F)cc1-c1cc(=O)[nH]c(=S)n1CCCN=C(N)N ?
18200 1/s per M

Under MPO (purified from human polynuclear leukocytes) (Homo sapiens): MPO kinact/Ki value of COc1ccc(-c2cc(=O)[nH]c(=S)n2CCN=C(N)N)c(OC)c1 ?
10900 1/s per M

Under MPO (purified from human polynuclear leukocytes) (Homo sapiens): MPO kinact/Ki value of O=c1cc(-c2ccccc2OC(F)(F)F)n(CCO)c(=S)[nH]1 ?
3930 1/s per M

Under MPO (purified from human polynuclear leukocytes) (Homo sapiens): MPO kinact/Ki value of COc1cc(OC)c(-c2cc(=O)[nH]c(=S)n2CCCN=C(N)N)cc1OC [Example 141, trifluoroacetate] ?
10500 1/s per M

Under MPO (purified from human polynuclear leukocytes) (Homo sapiens): MPO kinact/Ki value of NCCCn1c(-c2cccc3ncsc23)cc(=O)[nH]c1=S [Example 72, trifluoroacetate] ?
3580 1/s per M

Under MPO (purified from human polynuclear leukocytes) (Homo sapiens): MPO kinact/Ki value of COc1cc(OC)c(-c2cc(=O)[nH]c(=S)n2CC(N)=O)cc1C ?
8950 1/s per M

Under MPO (purified from human polynuclear leukocytes) (Homo sapiens): MPO kinact/Ki value of COCCn1c(-c2c(OC)ccc3ccccc23)cc(=O)[nH]c1=S ?
10400 1/s per M

Under MPO (purified from human polynuclear leukocytes) (Homo sapiens): MPO kinact/Ki value of COc1ccc(-c2cc(=O)[nH]c(=S)n2C[C@H]2CCCN2)c(OC)c1 [Example 267, hydrochloride] ?
3840 1/s per M

Under MPO (purified from human polynuclear leukocytes) (Homo sapiens): MPO kinact/Ki value of COc1cc(OC)c(-c2cc(=O)[nH]c(=S)n2CCN)cc1Cl [Example 111, hydrochloride] ?
10300 1/s per M

Under MPO (purified from human polynuclear leukocytes) (Homo sapiens): MPO kinact/Ki value of COc1ncc(Cl)cc1-c1cc(=O)[nH]c(=S)n1CCCN [Example 93, hydrochloride] ?
5120 1/s per M
